Quick reference: WBC of the listed items.
# Organism: Rattus norvegicus
# protocol text: Open TG-GATES - Regimen: Daily Repeat
# Format: toxicity, organism-based, Sprague-Dawley
# Parameters: regimen Daily Repeat, gender Male, age 6 weeks
# experimental context: in vivo, po, 0 mg/kg, 72 h, tissue Blood, route gavage, dose level Control, time 3 day
Report as a plain number; the unit x10_2/uL is understood.

Prompt: Quick one: WBC for CCO [ALCOHOL] ?
Completion: 82.3

---

# Species on record: Rattus norvegicus
# protocol text: Open TG-GATES - Regimen: Daily Repeat
# Assay type: toxicity, organism-based, Sprague-Dawley
# Set-up: regimen Daily Repeat, gender Male, age 6 weeks
# experimental context: in vivo, po, 0 mg/kg, […], tissue Blood, route gavage, dose level Control, time 7 day
parameter measured: Eos (%)
Enter your answer as a number in %; do not include the unit.

Example entries and their recorded answers appear below.
>  <molecule>
CCN(CC)C(=S)SSC(=S)N(CC)CC

>  <reading unit>
%

>  <Eos>
0.8

$$$$
>  <molecule>
CCO [ALCOHOL]

>  <reading unit>
%

>  <Eos>
1.2

$$$$
>  <molecule>
CC(S)C(=O)NCC(=O)O (stereo not drawn) [TIOPRONIN]

>  <reading unit>
%

>  <Eos>
0.8

$$$$
>  <molecule>
CC(=O)[C@@]1(O)CC[C@H]2[C@@H]3C=C(Cl)C4=CC(=O)CC[C@]4(C)[C@H]3CC[C@@]21C [CHLORMADINONE]

>  <reading unit>
%

>  <Eos>
0.8

$$$$
>  <molecule>
COc1ccc([C@@H]2Sc3ccccc3N(CCN(C)C)C(=O)[C@@H]2OC(C)=O)cc1 [DILTIAZEM]

>  <reading unit>
%

>  <Eos>
0.8

$$$$

Moving on to the next molecule.
Prompt: Recorded Eos of `Nc1ccc(Cc2ccc(N)cc2)cc1` , please.
Completion: 0.8

---

# Organism: Rattus norvegicus
# protocol text: Open TG-GATES - Regimen: Daily Repeat
# Assay type: toxicity, organism-based, Sprague-Dawley
# Set-up: regimen Daily Repeat, gender Male, age 6 weeks
# experimental context: in vivo, po, 0 mg/kg, […], tissue Plasma, route gavage, dose level Control, time 28 day
parameter measured: LDH (IU/L)
Reply numerically in IU/L, unit not repeated.

Worked set:
>  <compound>
COc1ccc([C@@H]2Sc3ccccc3N(CCN(C)C)C(=O)[C@@H]2OC(C)=O)cc1

>  <reading unit>
IU/L

>  <LDH>
63.4

$$$$
>  <compound>
CCN(CC)C(=S)SSC(=S)N(CC)CC

>  <reading unit>
IU/L

>  <LDH>
154.8

$$$$
>  <compound>
CCCCNC(=O)NS(=O)(=O)c1ccc(C)cc1 [TOLBUTAMIDE]

>  <reading unit>
IU/L

>  <LDH>
52

$$$$
>  <compound>
CCO

>  <reading unit>
IU/L

>  <LDH>
81.2

$$$$
>  <compound>
O=C(O)c1ccccc1Nc1ccccc1

>  <reading unit>
IU/L

>  <LDH>
104

$$$$

Prompt: So what's the measured LDH for this one? CN(CCOc1ccc(CC2SC(=O)NC2=O)cc1)c1ccccn1.O=C(O)/C=C\C(=O)O (stereo unspecified) [ROSIGLITAZONE MALEATE]
Completion: 68.8

Prompt: Try CC(S)C(=O)NCC(=O)O (stereo unspecified) next.
Completion: 152.6

Prompt: Here is the next compound: `O=c1ccc2ccccc2o1`
Completion: 51

Prompt: Moving on to the next compound: `CN(C/C=C/C#CC(C)(C)C)Cc1cccc2ccccc12`
Completion: 224.4

Prompt: Subsequent entry: `CC(=O)[C@@]1(O)CC[C@H]2[C@@H]3C=C(Cl)C4=CC(=O)CC[C@]4(C)[C@H]3CC[C@@]21C`
Completion: 217.4

Prompt: Then this compound: `Nc1ccc(Cc2ccc(N)cc2)cc1`
Completion: 67.6

---

# Species: Rattus norvegicus
# protocol text: Open TG-GATES - Regimen: Daily Repeat
# Format: toxicity, organism-based, Sprague-Dawley
# Set-up: regimen Daily Repeat, gender Male, age 6 weeks
# experimental context: in vivo, po, 1000 mg/kg, 72 h, tissue Plasma, route gavage, dose level High, time 3 day
Below is a list of entries, each paired with its recorded PL value.

>  <molecule>
CC(=O)[C@@]1(O)CC[C@H]2[C@@H]3C=C(Cl)C4=CC(=O)CC[C@]4(C)[C@H]3CC[C@@]21C

>  <PL>
198.4 mg/dL

$$$$
>  <molecule>
O=C(O)c1ccccc1Nc1ccccc1

>  <PL>
148.7 mg/dL

$$$$
>  <molecule>
CCCCNC(=O)NS(=O)(=O)c1ccc(C)cc1 [TOLBUTAMIDE]

>  <PL>
144 mg/dL

$$$$

Field: next molecule
Prompt: Entry under review: CC(S)C(=O)NCC(=O)O (centres undefined) . Reported PL?
Completion: 131 mg/dL

---

molecules and their reported TP
# Species: Rattus norvegicus
# protocol text: Open TG-GATES - Regimen: Daily Repeat
# Format: toxicity, organism-based, Sprague-Dawley
# Design: regimen Daily Repeat, gender Male, age 6 weeks
# experimental context: in vivo, po, 100 mg/kg, […], tissue Plasma, route gavage, dose level Low, time 28 day
The answer is to be given in g/dL; state only the numeric part.

>  <molecule>
CC(S)C(=O)NCC(=O)O (centres undefined) [TIOPRONIN]

>  <quantitative result>
5.9

$$$$
>  <molecule>
CC(=O)[C@@]1(O)CC[C@H]2[C@@H]3C=C(Cl)C4=CC(=O)CC[C@]4(C)[C@H]3CC[C@@]21C [CHLORMADINONE]

>  <quantitative result>
6

$$$$
>  <molecule>
CCCCNC(=O)NS(=O)(=O)c1ccc(C)cc1 [TOLBUTAMIDE]

>  <quantitative result>
6.2

$$$$

Lab note: next molecule to report on.
Prompt: Which TP is listed for O=C(O)c1ccccc1Nc1ccccc1 [FENAMIC ACID] ?
Completion: 6.2

---

# Organism: Rattus norvegicus
# protocol text: Open TG-GATES - Regimen: Daily Repeat
# Assay type: toxicity, organism-based, Sprague-Dawley
# Design: regimen Daily Repeat, gender Male, age 6 weeks
# experimental context: in vivo, po, 1000 mg/kg, 72 h, tissue Plasma, route gavage, dose level High, time 3 day
parameter measured: gamma-GTP (IU/L)
// units = IU/L; emit number, no label

Some molecules with recorded gamma-GTP:
>  <molecule>
CCCCNC(=O)NS(=O)(=O)c1ccc(C)cc1 [TOLBUTAMIDE]

>  <quantitative result>
1

$$$$
>  <molecule>
CC(=O)[C@@]1(O)CC[C@H]2[C@@H]3C=C(Cl)C4=CC(=O)CC[C@]4(C)[C@H]3CC[C@@]21C

>  <quantitative result>
2

$$$$
>  <molecule>
O=C(O)c1ccccc1Nc1ccccc1

>  <quantitative result>
1.3

$$$$

Proceeding to the next molecule to report its gamma-GTP.
Prompt: // gamma-GTP lookup, key: CC(S)C(=O)NCC(=O)O (centres undefined)
Completion: 1.8

---

# Species on record: Rattus norvegicus
# protocol text: Open TG-GATES - Regimen: Daily Repeat
# Type: toxicity, organism-based, Sprague-Dawley
# Design: regimen Daily Repeat, gender Male, age 6 weeks
# experimental context: in vivo, po, 0 mg/kg, […], tissue Plasma, route gavage, dose level Control, time 14 day
parameter measured: ALT (IU/L)
Supply the numeric figure in IU/L, leaving out any unit text.

>  <compound>
NS(=O)(=O)c1cc(C(=O)O)c(NCc2ccco2)cc1Cl [FUROSEMIDE]

>  <reading unit>
IU/L

>  <ALT>
43.4

$$$$
>  <compound>
CN(C/C=C/C#CC(C)(C)C)Cc1cccc2ccccc12

>  <reading unit>
IU/L

>  <ALT>
34.8

$$$$
>  <compound>
CCCCC1C(=O)N(c2ccccc2)N(c2ccccc2)C1=O

>  <reading unit>
IU/L

>  <ALT>
31.4

$$$$
>  <compound>
COc1ccc([C@@H]2Sc3ccccc3N(CCN(C)C)C(=O)[C@@H]2OC(C)=O)cc1

>  <reading unit>
IU/L

>  <ALT>
39

$$$$

Prompt: Quick one: ALT of `CCO` ?
Completion: 30

Prompt: // same read-out, input: `CC(=O)[C@@]1(O)CC[C@H]2[C@@H]3C=C(Cl)C4=CC(=O)CC[C@]4(C)[C@H]3CC[C@@]21C`
Completion: 37.4

Prompt: Now the compound `CCN(CC)C(=S)SSC(=S)N(CC)CC`
Completion: 45

---

# Species on record: Rattus norvegicus
# protocol text: Open TG-GATES - Regimen: Daily Repeat
# Type: toxicity, organism-based, Sprague-Dawley
# Set-up: regimen Daily Repeat, gender Male, age 6 weeks
# experimental context: in vivo, po, 0 mg/kg, […], tissue Plasma, route gavage, dose level Control, time 28 day
Entries annotated with measured Na
Hi! Could you send only the number? It should be in meq/L, unit omitted.

>  <compound>
COc1ccc([C@@H]2Sc3ccccc3N(CCN(C)C)C(=O)[C@@H]2OC(C)=O)cc1

>  <Na [meq/L]>
146.4

$$$$

Shift focus to the following entry.
Prompt: Reported Na for `O=C(O)c1ccccc1Nc1ccccc1` : what is it?
Completion: 144.4
